Biological target: T1, 4H370-bN
T1 chain: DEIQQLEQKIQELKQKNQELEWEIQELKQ
Experiment: two-hybrid library CCNG1;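 further: natural log of median RNA to DNA barcode read ratio; higher means stronger binding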
Assay readout: interaction score
Number only, no unit.

Consider the worked cases shown below.
Binder | Assay readout | Observed value
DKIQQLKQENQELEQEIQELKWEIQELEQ [4H2697-bN] | interaction score | -0.695
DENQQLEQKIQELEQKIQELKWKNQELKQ [4H1328-bN] | interaction score | -0.748
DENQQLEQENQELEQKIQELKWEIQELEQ [4H1193-bN] | interaction score | -1.1

Asked: Form field: reported interaction score of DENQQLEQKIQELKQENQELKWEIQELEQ [4H1369-bN]
Given back: -1.79

Asked: Value lookup for interaction score; key = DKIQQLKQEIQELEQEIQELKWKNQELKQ [4H2576-bN]
Given back: 0.65
